The entries below come with measured pIC50 values attached.
# TARGET UNDER TEST: HCV polymerase (NS5B) type 1a (Hepatitis C virus genotype 1a)
# Construct: made in house; host or cells: Escherichia coli (by the 'similar method' of the 1b enzyme)
# TEST DETAILS: Assay of enzyme (HCV polymerase) inhibitory activity, type 1a enzyme
# Type: biochemical, HCV type 1a (cloned from the blood of patients)
# MEASUREMENT CONTEXT: HCV polymerase inhibitory activity IC50, 1a, type 1a enzyme
pIC50: −log10 of the molar value.

{"MOLECULE": "O=C(NCc1ccc(OC(F)(F)F)cc1)[C@H]1CN(c2nc3nc(C4CC4)[nH]c(=O)c3s2)CCN1S(=O)(=O)c1ccc(OC(F)(F)F)cc1 [Example 1108]", "pIC50": "6.00 to 7.00"}
{"MOLECULE": "NC(=O)c1ncc2sc(N3CCN(S(=O)(=O)c4ccc(OC(F)(F)F)cc4)[C@@H](C(=O)NCc4ccc(OC(F)(F)F)cc4)C3)nc2n1 [Example 979]", "pIC50": "> 7.00"}
{"MOLECULE": "O=C(NCc1ccc(OC(F)(F)F)cc1)[C@H]1CN(c2nc3c(=O)[nH][nH]c(=O)c3s2)CCN1S(=O)(=O)c1ccc(OC(F)(F)F)cc1 [Example 803]", "pIC50": "> 7.00"}
{"MOLECULE": "CCCc1ccc(CNC(=O)[C@H]2CN(c3nc(C)c(C(=O)O)cc3F)CCN2S(=O)(=O)c2ccc(OC(F)(F)F)cc2)cc1 [Example 823]", "pIC50": "6.00 to 7.00"}
{"MOLECULE": "O=C(NCc1ccc(OC(F)(F)F)cc1)[C@H]1CN(c2nc3nc(Cl)[nH]c(=O)c3s2)CCN1S(=O)(=O)c1ccc(OC(F)(F)F)cc1 [Example 963]", "pIC50": "> 7.00"}
{"MOLECULE": "CCc1ccc(S(=O)(=O)N2CCN(c3cnc(C(=O)O)cn3)C[C@@H]2C(=O)NCc2ccc(OC(F)(F)F)cc2)cc1 [Example 786]", "pIC50": "> 7.00"}

###

# TARGET UNDER TEST: HCV polymerase (NS5B) type 1b (Hepatitis C virus genotype 1b)
# Construct: a region encoding NS5B (J Virol 1991 March, 65(3), 1105-13, 544 amino acids after deletion of 47 amino acids on the C-terminal); 6xHis (C); made in house; host or cells: Escherichia coli
# TEST DETAILS: Assay of enzyme (HCV polymerase) inhibitory activity, type 1b enzyme
# Format: biochemical, HCV BK strain (type 1b)
# MEASUREMENT CONTEXT: HCV polymerase inhibitory activity (IC50), 1b, type 1b enzyme 0.5 μg/ml, 25° C., 60 min
Where a name gives a salt, the structure may show the parent alone.
The entries below come with measured IC50 values attached.

{"COMPOUND": "CC(C)c1ccc(CNC(=O)[C@H]2CN(C(=O)Nc3cccnc3)CCN2S(=O)(=O)c2ccc(C(F)(F)F)cc2)cc1", "TARGET UNDER TEST": "HCV polymerase (NS5B) type 1b (Hepatitis C virus genotype 1b)", "IC50": "100 to 1000 nM"}
{"COMPOUND": "Cc1nc(N2CCN(S(=O)(=O)c3ccc4c(c3)CCCCC4)[C@@H](C(=O)NCc3ccc(C(C)C)cc3)C2)sc1C(=O)O", "TARGET UNDER TEST": "HCV polymerase (NS5B) type 1b (Hepatitis C virus genotype 1b)", "IC50": "< 100 nM"}
{"COMPOUND": "CCC(F)(F)c1ccc(CNC(=O)[C@H]2CN(C(=O)Cn3cnnn3)CCN2S(=O)(=O)c2ccc(OC(F)(F)F)cc2)cc1", "TARGET UNDER TEST": "HCV polymerase (NS5B) type 1b (Hepatitis C virus genotype 1b)", "IC50": "< 100 nM"}
{"COMPOUND": "COC(=O)COc1ccc(S(=O)(=O)N2CCN(C(C)=O)C[C@@H]2C(=O)NCc2ccc(C(C)C)cc2)cc1", "TARGET UNDER TEST": "HCV polymerase (NS5B) type 1b (Hepatitis C virus genotype 1b)", "IC50": "100 to 1000 nM"}
{"COMPOUND": "COc1ccc(CNC(=O)[C@H]2CN(C(C)=O)CCN2S(=O)(=O)c2ccc(OC(F)(F)F)cc2)cc1O", "TARGET UNDER TEST": "HCV polymerase (NS5B) type 1b (Hepatitis C virus genotype 1b)", "IC50": "> 1000 nM"}
{"COMPOUND": "COc1nc(CNC(=O)[C@H]2CN(C(C)=O)CCN2S(=O)(=O)c2ccc(OC(F)(F)F)cc2)ccc1C", "TARGET UNDER TEST": "HCV polymerase (NS5B) type 1b (Hepatitis C virus genotype 1b)", "IC50": "> 1000 nM"}
{"COMPOUND": "CCC(F)(F)c1ccc(CNC(=O)[C@H]2CN(C(=O)n3cnc(N)n3)CCN2S(=O)(=O)c2ccc(OC(F)(F)F)cc2)cc1", "TARGET UNDER TEST": "HCV polymerase (NS5B) type 1b (Hepatitis C virus genotype 1b)", "IC50": "> 1000 nM"}
{"COMPOUND": "CC(=O)N1CCN(S(=O)(=O)c2ccc(C(C)C)cc2)C(C(=O)NCc2ccccn2)C1 (stereo not drawn)", "TARGET UNDER TEST": "HCV polymerase (NS5B) type 1b (Hepatitis C virus genotype 1b)", "IC50": "> 1000 nM"}
{"COMPOUND": "CCC(=O)N1CCN(S(=O)(=O)c2ccc(I)cc2)C(C(=O)NCc2ccc(N(C)C)cc2)C1 (stereo not drawn)", "TARGET UNDER TEST": "HCV polymerase (NS5B) type 1b (Hepatitis C virus genotype 1b)", "IC50": "> 1000 nM"}
{"COMPOUND": "COc1nsc(N2CCN(S(=O)(=O)c3ccc(OC(F)(F)F)cc3)[C@@H](C(=O)NCc3ccc(C(C)(C)C)cc3)C2)n1", "TARGET UNDER TEST": "HCV polymerase (NS5B) type 1b (Hepatitis C virus genotype 1b)", "IC50": "< 100 nM"}
{"COMPOUND": "CCCc1ccc(S(=O)(=O)N2CCN(C(=O)Nc3cccc(OCC(=O)O)c3)C[C@@H]2C(=O)NCc2ccc(C(C)C)cc2)cc1", "TARGET UNDER TEST": "HCV polymerase (NS5B) type 1b (Hepatitis C virus genotype 1b)", "IC50": "< 100 nM"}
{"COMPOUND": "CC(C)c1ccc(CNC(=O)[C@H]2CN(C(=O)Nc3ccncc3)CCN2S(=O)(=O)c2ccc(OC(F)(F)F)cc2)cc1", "TARGET UNDER TEST": "HCV polymerase (NS5B) type 1b (Hepatitis C virus genotype 1b)", "IC50": "< 100 nM"}
{"COMPOUND": "COC(=O)c1nc(Cl)c(N2CCN(S(=O)(=O)c3ccc(C(F)(F)F)cc3)[C@@H](C(=O)NCc3ccc(C(C)C)cc3)C2)nc1Br", "TARGET UNDER TEST": "HCV polymerase (NS5B) type 1b (Hepatitis C virus genotype 1b)", "IC50": "> 1000 nM"}
{"COMPOUND": "CC(C)c1ccc(CNC(=O)[C@H]2CN(c3nc(CC(=O)O)cs3)CCN2S(=O)(=O)c2ccc(C(F)(F)F)cc2)cc1", "TARGET UNDER TEST": "HCV polymerase (NS5B) type 1b (Hepatitis C virus genotype 1b)", "IC50": "< 100 nM"}
{"COMPOUND": "CCC(F)(F)c1ccc(CNC(=O)[C@H]2CN(c3ccncn3)CCN2S(=O)(=O)c2ccc(OC(F)(F)F)cc2)cc1", "TARGET UNDER TEST": "HCV polymerase (NS5B) type 1b (Hepatitis C virus genotype 1b)", "IC50": "< 100 nM"}
{"COMPOUND": "CC(C)c1ccc(CNC(=O)[C@H]2CN(C(=O)Cc3c[nH]cn3)CCN2S(=O)(=O)c2ccc(C(F)(F)F)cc2)cc1", "TARGET UNDER TEST": "HCV polymerase (NS5B) type 1b (Hepatitis C virus genotype 1b)", "IC50": "100 to 1000 nM"}
{"COMPOUND": "CCCc1ccc(CNC(=O)[C@H]2CN(c3nc(C)c(C(=O)O)s3)CCN2S(=O)(=O)c2ccc(OC(F)(F)F)c(F)c2)cc1", "TARGET UNDER TEST": "HCV polymerase (NS5B) type 1b (Hepatitis C virus genotype 1b)", "IC50": "< 100 nM"}
{"COMPOUND": "CC(=O)N1CCN(S(=O)(=O)c2ccc(Oc3ccc(Cl)cc3)cc2)C(C(=O)NCc2ccc(C(F)(F)F)cc2)C1 (stereo not drawn)", "TARGET UNDER TEST": "HCV polymerase (NS5B) type 1b (Hepatitis C virus genotype 1b)", "IC50": "> 1000 nM"}
{"COMPOUND": "CCC(F)(F)c1ccc(CNC(=O)[C@H]2CN(C(=O)n3nc(C)nc3N)CCN2S(=O)(=O)c2ccc(OC(F)(F)F)cc2)cc1", "TARGET UNDER TEST": "HCV polymerase (NS5B) type 1b (Hepatitis C virus genotype 1b)", "IC50": "> 1000 nM"}
{"COMPOUND": "CCC(F)(F)c1ccc(CNC(=O)[C@H]2CN(C(=O)Nc3ccnc(OC)c3)CCN2S(=O)(=O)c2ccc(OC(F)(F)F)cc2)cc1", "TARGET UNDER TEST": "HCV polymerase (NS5B) type 1b (Hepatitis C virus genotype 1b)", "IC50": "100 to 1000 nM"}
{"COMPOUND": "CCCc1ccc(CNC(=O)[C@H]2CN(c3cnc4c(n3)NC(=O)OC4)CCN2S(=O)(=O)c2ccc(OC(F)(F)F)cc2)cc1", "TARGET UNDER TEST": "HCV polymerase (NS5B) type 1b (Hepatitis C virus genotype 1b)", "IC50": "< 100 nM"}
{"COMPOUND": "CC(=O)N1CCN(S(=O)(=O)c2ccc(CC(C)(C)C)cc2)[C@@H](C(=O)NCc2ccc(C(C)C)cc2)C1", "TARGET UNDER TEST": "HCV polymerase (NS5B) type 1b (Hepatitis C virus genotype 1b)", "IC50": "< 100 nM"}
{"COMPOUND": "CN(C)c1ccc(CNC(=O)C2CN(C(=O)CCN)CCN2S(=O)(=O)c2ccc(I)cc2)cc1 (stereo not drawn) [Example 89, hydrochloride]", "TARGET UNDER TEST": "HCV polymerase (NS5B) type 1b (Hepatitis C virus genotype 1b)", "IC50": "> 1000 nM"}
{"COMPOUND": "CCCc1ccc(CNC(=O)[C@H]2CN(c3nc(C)c(C(=O)O)s3)CCN2S(=O)(=O)c2ccc(OC(F)(F)F)cc2F)cc1", "TARGET UNDER TEST": "HCV polymerase (NS5B) type 1b (Hepatitis C virus genotype 1b)", "IC50": "< 100 nM"}
{"COMPOUND": "CN(C)c1ccc(CNC(=O)C2CN(C(=O)CN3CCCCC3)CCN2S(=O)(=O)c2ccc(I)cc2)cc1 (stereo not drawn)", "TARGET UNDER TEST": "HCV polymerase (NS5B) type 1b (Hepatitis C virus genotype 1b)", "IC50": "> 1000 nM"}
{"COMPOUND": "CC(=O)N1CCN(S(=O)(=O)c2ccc(C(C)C)cc2)[C@@H](C(=O)NCc2ccc(C(C)(C)C)cc2)C1", "TARGET UNDER TEST": "HCV polymerase (NS5B) type 1b (Hepatitis C virus genotype 1b)", "IC50": "< 100 nM"}
{"COMPOUND": "CC(C)c1ccc(S(=O)(=O)N2CCN(C(=O)CO)CC2C(=O)NCc2ccc(C(F)(F)F)cc2)cc1 (stereo not drawn)", "TARGET UNDER TEST": "HCV polymerase (NS5B) type 1b (Hepatitis C virus genotype 1b)", "IC50": "> 1000 nM"}
